Where do these numbers come from? They come from patent US8178506B2.

- System: PEPCK-c
- experiment_description: PEPCK-c mRNA expression in HepG2 cells
- Type: cell-based, human
- assay_setup: HepG2 cells, Experiment 1, basal (no insulin), four hours; UTC = 100
In the oligonucleotide strings, read from the 5' end, every base follows the letter of its sugar. An asterisk marks phosphorothioate; unmarked linkages are phosphodiester. Other units and linkages are bracketed, terminal groups are in braces. A string of capitals states the bases alone. e = 2'-O-(2-methoxyethyl) (MOE); [5mC] = 5-methylcytosine
Entries and their PEPCKc mRNA
Answer with a bare number; do not write a unit.

Use the examples below as a reference point.
substance: 327949 (antisense e[5mC]*eA*e[5mC]*eA*eA*eA*eT*eT*e[5mC]*eG*eG*eA*eT*e[5mC]*eT*eA*e[5mC]*eA*eG*eG*eG*eT*eA) [compound 327949]
PEPCKc mRNA: 81
--
substance: 327918 (antisense e[5mC]*eT*eA*eG*eT*eA*e[5mC]*eA*eT*e[5mC]*eA*eT*e[5mC]*eT*eA*eT*eA*e[5mC]*eT*eG*eT*eA) [compound 327918]
PEPCKc mRNA: 81

Identify measured PEPCKc mRNA associated with 341805 (antisense ACCCTTATCAGTTCTCCGTCCA; all 2'-MOE, all phosphorothioate, methylation of C not given here) [compound 341805]
40

* * *

- System: HeLa cells
- experiment_description: Cell cycle assay in HeLa cells
- Format: cell-based, human
- assay_setup: HeLa cells, 150 nM oligomeric compound, 48 hours after treatment; relative to untreated control (UTC=100)
In the oligonucleotide strings, read from the 5' end, every base follows the letter of its sugar. An asterisk marks phosphorothioate; unmarked linkages are phosphodiester. Other units and linkages are bracketed, terminal groups are in braces. A string of capitals states the bases alone. e = 2'-O-(2-methoxyethyl) (MOE); [5mC] = 5-methylcytosine; d = 2'-deoxy (DNA)
measured_quantity: % cells in cell cycle phase: subG1 (%)
Your answer should be a plain number; it is taken to be in %.

Return reported % cells in cell cycle phase: subG1. Input substance: 327946 (antisense eA*eG*eG*e[5mC]*eG*eA*eA*eG*eG*eA*eT*eG*eA*e[5mC]*eA*eA*eA*eG*eG*eG*eA*eA) [compound 327946]
431

Specify measured % cells in cell cycle phase: subG1 for 327944 (antisense eA*eA*eA*eG*eT*eG*eT*e[5mC]*eA*eG*eA*eT*eA*e[5mC]*eG*eG*eT*eG*eT*eG*eG) [compound 327944] .
490

Output measured % cells in cell cycle phase: subG1 for this item: 328374 (eA*eG*e[5mC]*eT*eT*dT*dA*dG*d[5mC]*dT*dG*dG*dG*dT*d[5mC]*eA*eG*eG*eA*e[5mC]; antisense) [compound 328374]
787

Answer with the recorded % cells in cell cycle phase: subG1 for the substance listed here: 327908 (antisense e[5mC]*eA*eA*eT*eG*e[5mC]*eA*eA*e[5mC]*eT*eA*e[5mC]*eA*eA*eT*eG*e[5mC]*eA*e[5mC]) [compound 327908]
61

Name the recorded % cells in cell cycle phase: subG1 of the item 345395 (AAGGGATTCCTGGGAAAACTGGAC; sugars from the 5' end e5 d10 e9, all phosphorothioate, methylation of C not given here) [compound 345395] in your answer.
213

* * *

Known PEPCK-c (% UTC) of a selection of substances
- Tested on: PEPCK-c
- experiment_description: PEPCK-c mRNA expression in HepG2 cells
- Format: cell-based, human
- assay_setup: Experiment 2, 1 nM insulin treated; HepG2; 100 nM oligomeric compound
In the oligonucleotide strings, read from the 5' end, every base follows the letter of its sugar. An asterisk marks phosphorothioate; unmarked linkages are phosphodiester. Other units and linkages are bracketed, terminal groups are in braces. A string of capitals states the bases alone. e = 2'-O-(2-methoxyethyl) (MOE); [5mC] = 5-methylcytosine
# value in % UTC; strip the unit string

substance: 327941 (antisense eA*eA*e[5mC]*e[5mC]*e[5mC]*eA*e[5mC]*e[5mC]*eG*eA*e[5mC]*eA*eG*e[5mC]*eA*eA*eT*eG*eA*eA*eT*eG*eT*eT) [compound 327941]
subject_of_test: PEPCK-c
unit_label: % UTC
readout_number: 98

substance: 338664 (antisense e[5mC]*eA*eG*eA*e[5mC]*eT*e[5mC]*e[5mC]*e[5mC]*eA*eA*e[5mC]*eT*eG*eA*e[5mC]*e[5mC]*eA*eG*eA) [compound 338664]
subject_of_test: PEPCK-c
unit_label: % UTC
readout_number: 76

substance: 327901 (antisense eT*eG*eA*eG*e[5mC]*eT*eA*e[5mC]*eA*eG*eT*eG*e[5mC]*eT*eT*e[5mC]*eA*eT*e[5mC]*eT*e[5mC]*eA) [compound 327901]
subject_of_test: PEPCK-c
unit_label: % UTC
readout_number: 117

substance: 327905 (antisense e[5mC]*eA*eG*eA*e[5mC]*eT*e[5mC]*e[5mC]*eG*eG*eT*eG*eG*eA*eA*eT*eG*eA*eA*eG*eG*eA) [compound 327905]
subject_of_test: PEPCK-c
unit_label: % UTC
readout_number: 147

substance: 327919 (antisense eG*eA*eA*eA*e[5mC]*e[5mC]*e[5mC]*eA*eG*e[5mC]*eA*eG*eA*e[5mC]*eA*eA*eT*eG*eT*eA*eG*e[5mC]*eT) [compound 327919]
subject_of_test: PEPCK-c
unit_label: % UTC
readout_number: 105

Report PEPCK-c (% UTC), nothing else, for this substance: 327890 (antisense eA*eG*e[5mC]*eA*e[5mC]*eA*eA*eA*e[5mC]*eT*eA*e[5mC]*eT*eA*e[5mC]*e[5mC]*eT*e[5mC]*eA) [compound 327890]
113

Give PEPCK-c (% UTC) for 327934 (antisense eG*eG*eT*eA*e[5mC]*eA*eA*eT*e[5mC]*eA*eA*e[5mC]*eG*eG*eT*e[5mC]*eG*eA*eT*eG*eG*eT) [compound 327934]
105

Name the recorded PEPCK-c (% UTC) of the item 327878 (antisense e[5mC]*eT*eA*eG*eT*eG*eG*eT*e[5mC]*e[5mC]*eT*eA*eA*eA*e[5mC]*eA*eT*eT*eT*e[5mC]*eA*e[5mC]) [compound 327878] in your answer.
29

Tell us which PEPCK-c (% UTC) value is on record for 327892 (antisense eA*e[5mC]*eT*eT*eT*e[5mC]*eG*eG*eT*eT*eA*eT*e[5mC]*eT*eA*eG*e[5mC]*eT*eT*eT*eA) [compound 327892]
104

Supply measured PEPCK-c (% UTC) of 327903 (antisense eA*eA*e[5mC]*eT*eA*eT*eA*e[5mC]*eA*eA*e[5mC]*e[5mC]*eT*eA*e[5mC]*eT*eA*e[5mC]*e[5mC]*eT*e[5mC]*eA) [compound 327903] in your reply.
87

* * *

- Test system: PEPCK-c
- experiment_description: PEPCK-c mRNA expression in HepG2 cells
- Format: cell-based, human
- assay_setup: Experiment 1, basal (no insulin); HepG2; 100 nM oligomeric compound
In the oligonucleotide strings, read from the 5' end, every base follows the letter of its sugar. An asterisk marks phosphorothioate; unmarked linkages are phosphodiester. Other units and linkages are bracketed, terminal groups are in braces. A string of capitals states the bases alone. e = 2'-O-(2-methoxyethyl) (MOE); [5mC] = 5-methylcytosine
PEPCK-c (% UTC) for assorted substances
Please reply with the bare figure in % UTC and do not write the unit itself.

Recorded PEPCK-c (% UTC), per entry:
substance: 327941 (antisense eA*eA*e[5mC]*e[5mC]*e[5mC]*eA*e[5mC]*e[5mC]*eG*eA*e[5mC]*eA*eG*e[5mC]*eA*eA*eT*eG*eA*eA*eT*eG*eT*eT) [compound 327941]
unit_label: % UTC
readout_number: 101
//
substance: 327954 (antisense eA*e[5mC]*eA*eA*eA*eG*eT*eT*e[5mC]*eT*eG*eT*eG*eA*eT*eG*e[5mC]*eA*e[5mC]*eT*eG*eA) [compound 327954]
unit_label: % UTC
readout_number: 79

Now let's try a different one.
Return reported PEPCK-c (% UTC) for target or system PEPCK-c, item 327889 (antisense eG*eT*eG*eG*eT*eA*eA*eT*e[5mC]*e[5mC]*e[5mC]*eT*eG*eG*e[5mC]*eA*eA*eT*eG*eT*eG*eA*eT) [compound 327889] .
137

* * *

- Tested on: A549 cells
- experiment_description: Cell cycle assay in A549 cells
- Assay type: cell-based, human
- assay_setup: A549 cells, 100 nM, 24 hours; relative to the untreated control cells in that phase
measured_quantity: % cells in cell cycle phase: subG1 (%)
Field format: number, assumed %, no unit text.

Look up and report measured % cells in cell cycle phase: subG1 for this entry: 338836 (antisense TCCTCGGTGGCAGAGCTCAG; all 2'-MOE, all phosphorothioate, methylation of C not given here) [compound 338836]
68

Please give measured % cells in cell cycle phase: subG1 of the following entry: 340350 (antisense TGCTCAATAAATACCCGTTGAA; all 2'-MOE, all phosphorothioate, methylation of C not given here) [compound 340350]
267

Provide one value: measured % cells in cell cycle phase: subG1 of 338769 (antisense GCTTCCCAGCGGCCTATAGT; all 2'-MOE, all phosphorothioate, methylation of C not given here) [compound 338769]
130

Give recorded % cells in cell cycle phase: subG1. 338637 (antisense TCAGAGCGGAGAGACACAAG; all 2'-MOE, all phosphorothioate, methylation of C not given here) [compound 338637]
67
